Assay: NCI Yeast Anticancer Drug Screen. Data for the bub3 strain (AID 167)
Conditions: S. cerevisiae bub3 mutant strain, hits give high values; at 50.0 µM unless noted
About 79,000 compounds went through this panel and 15% of them were active in at least one assay; those are over-represented in the sample as a whole. Where a SMILES comes first, the peptide text is derived from it. The star is where a group is joined. Boc = CC(C)(C)OC(=O)*
growth inhibition values by entry
Give the value, in units of %, as a plain number.

Below, 3 compounds whose answers are already recorded.
CO/C(=N\N=C\c1ccc(Cl)cc1Cl)c1ccncc1 ... -27.8
O=C(O)CCCCCCC(=O)O ... 0.9
O=C(c1ccc([N+](=O)[O-])cc1)N(Cc1ccccc1)Cc1ccccc1 (tested in a mixture with another compound) ... 26.8

Reported growth inhibition for CCCOC(=O)C1C(=O)CC(c2ccccc2)C1c1ccccc1 (stereo unspecified) was 1.25

Recorded growth inhibition (compound CC(=O)Nc1ccc(S(=O)(=O)O)c(OC(C)=O)c1 ): 7.35

Sample COC(=O)C(Cc1c[nH]c2ccccc12)NC(=O)C(Cc1c[nH]c2ccccc12)NC(=O)C(Cc1c[nH]c2ccccc12)NC(=O)C(Cc1c[nH]c2ccccc12)NC(=O)C(Cc1c[nH]c2ccccc12)NC(=O)C(Cc1c[nH]c2ccccc12)NC(=O)OC(C)(C)C (stereo unspecified) (Boc-WWWWWW-OMe; configuration not given here) ; growth inhibition observed: 8.25

---

Experiment: NCI Yeast Anticancer Drug Screen. Data for the bub3 strain (AID 167)
Settings: S. cerevisiae bub3 mutant strain, hits give high values; at 50.0 µM unless noted
This is part of a sample that, as a whole, favours compounds with a hit. Of some 79,000 tested, about 15% had one in any assay.
Reported growth inhibition by item:
# unit: % | format: bare number

NCCNc1ccccc1 ... -20.4
CCN(CC)CCNC(=O)c1cc(N2CCOCC2)ccn1 ... 30.6
O=C(O)/C(Cc1cn[nH]n1)=N\O ... -39.4
CN(C)c1ccc(/C=N/Nc2nc3ccccc3c(=O)n2-c2ccccc2)cc1 ... 26.1
CC1=CC(C)(C)N(C)C(N)=N1 ... -2.65

Could you now look at the following molecule, please?
// growth inhibition value for O=C1NC(=S)N/C1=C\c1ccc(Cl)cc1 : -9.3

---

Assay: NCI Yeast Anticancer Drug Screen. Data for the rad50 strain (AID 155);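 further: 0% = growth of vehicle-only cultures of the same strain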
Settings: S. cerevisiae rad50 strain growth inhibition, hits give high values; at 50.0 µM unless noted
This is part of a sample that, as a whole, favours compounds with a hit. Of some 79,000 tested, about 15% had one in any assay.
Each entry below carries its reported growth inhibition.
Please respond with the number in % and leave the unit unwritten.

Some entries whose results are on file:
O=C(/C=C\c1ccc(Cl)c(Cl)c1)c1ccc(Cl)cc1Cl ... 36.1
CC1CC(=O)C(CC(=O)O)C1C(C(=O)C(=O)Nc1c(C#N)cccc1[N+](=O)[O-])[N+](=O)[O-] (centres undefined) ... -37.7
CCSC(=Nc1nc2ccc([N+](=O)[O-])cc2s1)SCC ... 43.5

The measured growth inhibition associated with Cc1ccccc1S(N)(=O)=O reads -17.7

// growth inhibition lookup, molecule = c1ccc(-n2ncn[n+]2-c2ccccc2)cc1 , result: 6.55

Record summary for CS(=O)(=O)c1nc2[nH]cnc(=S)c2[nH]1 : reported growth inhibition = 8

The reported value for CCN(CC(COc1ccc2c(c1)[n+]([O-])nc(N)[n+]2[O-])OC(C)=O)C(C)=O (centres undefined) in terms of growth inhibition is 42.9

Cc1c(C(=O)C/C(=N/NC(=O)C[n+]2ccccc2)C(=O)Nc2ccccc2)[n+](=O)c2ccccc2n1O yielded growth inhibition of -37.5

---

Test: NCI Yeast Anticancer Drug Screen. Data for the bub3 strain (AID 167)
Settings: S. cerevisiae bub3 mutant strain, hits give high values; at 50.0 µM unless noted
Compounds without any hit were thinned out: in the full panel of roughly 79,000, 15% have a hit.
Quick rule: growth inhibition of at least 10% means True, below that means False.

Use these answered entries as a reference point.
COS(=O)(=O)N(C)c1nc(N(C)C)nc(N(C)C)n1 ... False
CC1=C2CN(C(=O)OCC(C)C)CCC2C2=C(C(=O)c3ccccc3C2=O)C1C (configuration not stated) ... False
Cc1nc2c(c(=O)[nH]1)C(c1ccccc1)C(C)(C)O2 (configuration not stated) ... False

Determine whether measured growth inhibition meets or exceeds 10% for CC(C)(O)CCNc1ncnc2c1ncn2C1OC(CO)C(O)C1O (configuration not stated)
True

Is it the case that S=c1nc2ccccn2c(=S)n1-c1ccccn1 has growth inhibition reaching or exceeding 10%?
True

Given the entry CCCC1([N+](=O)[O-])c2ccccc2-c2ccc([N+](=O)[O-])cc21 (configuration not stated) , answer whether its growth inhibition meets or surpasses 10%.
True

---

Listing: growth inhibition of selected compounds
Assay: NCI Yeast Anticancer Drug Screen. Data for the rad50 strain (AID 155);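 further: 0% = growth of vehicle-only cultures of the same strain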
Details: S. cerevisiae rad50 strain growth inhibition, hits give high values; at 50.0 µM unless noted
About 79,000 compounds went through this panel and 15% of them were active in at least one assay; those are over-represented in the sample as a whole.
Provide the reading as a plain figure in %.

CC1=CCC(C(C)C)C2CC(C)(O)CCC12 (stereo unspecified) ... -3.1
[Cu+2].[NH-]CC(=O)NC(Cc1ccccc1)C(=O)O.[NH-]CC(=O)NC(Cc1ccccc1)C(=O)O (stereo unspecified) ... 30.9

GET /value?item= Cc1cc(Cl)ccc1NC(=O)C1C(=O)N(c2ccc(Cl)cc2C)C(=O)/C1=N\N (stereo unspecified) &field=growth inhibition returns 0.65

---

Below, each of the compounds is paired with its reported growth inhibition value.
Test: NCI Yeast Anticancer Drug Screen. Data for the bub3 strain (AID 167)
Details: S. cerevisiae bub3 mutant strain, hits give high values; at 50.0 µM unless noted
This is part of a sample that, as a whole, favours compounds with a hit. Of some 79,000 tested, about 15% had one in any assay.
Write the answer as a number in %, unit excluded.

Measured growth inhibition, O=C(c1ccccc1)N1CCC(Nc2nccs2)O1 (configuration not stated) : -8.15

---

Experiment: NCI Yeast Anticancer Drug Screen. Data for the mlh1 rad18 strain (AID 175)
Details: S. cerevisiae mlh1 rad18 strain growth inhibition, hits give high values; at 50.0 µM unless noted
Description: Growth inhibition of yeast strains with defined genetic alterations is measured as a screen for potential anti-cancer activity. Selected strains with alterations in DNA damage repair or cell cycle control were exposed to compounds and growth inhibition was measured relative to vehicle treated controls. The strain used in this assay is mlh1 rad18
About 79,000 compounds went through this panel and 15% of them were active in at least one assay; those are over-represented in the sample as a whole.
# Lookup of reported growth inhibition keyed by entry
State just the number; it will be interpreted in %.

As a guide, the following entries are already answered.
COC(=O)C(=O)c1c(C(=O)OC)nc2nnc(N)n2c1-c1cccc([N+](=O)[O-])c1 ... 18
CC(=O)[C@@]1(O)CC[C@H]2[C@@H]3CC[C@@H]4C[C@H](O)CC[C@]4(C)[C@H]3[C@H](O)C[C@@]21C ... -7.85
CCOC(=O)C1=CN=C2C(=O)N(c3ccccc3)N(C)C2(C)C1=N (stereo unspecified) ... 12.9

The molecule identified as CCOC(=O)c1cnc2sc3ccc4ccccc4c3n2c1=O registered its growth inhibition at 60.7

Record CN(C(=O)c1ccc([N+](=O)[O-])cc1)C(c1ccco1)P(=O)(c1ccccc1)c1ccccc1 (stereo unspecified) , field growth inhibition: 26.4

Noted for CC(Oc1ccccc1)C(=O)NC(=S)Nc1cccc2ccccc12 (stereo unspecified) : its growth inhibition reads 4.85

Lookup result for CCOC(=O)Cn1cncc1C ; measured growth inhibition: -7.1

Item: CCCCCCCCCCCCC(=O)N1CCOCC1 | growth inhibition: 99.5

Recorded result, COc1cc2c3c([nH]c2c(OC)c1OC)CCN(Cc1ccccc1)C3 , growth inhibition: 10.8

Nc1ccc2ncc(Nc3ccc(F)cc3)nc2c1 has a reported growth inhibition of 15.6

// growth inhibition lookup, molecule = CCCC(C)C(=O)OCc1ccccc1 (stereo unspecified) , result: 5

---

Here, each record is paired with measured growth inhibition data.
Assay: NCI Yeast Anticancer Drug Screen. Data for the mlh1 rad18 strain (AID 175)
Conditions: S. cerevisiae mlh1 rad18 strain growth inhibition, hits give high values; at 50.0 µM unless noted
Procedure: Growth inhibition of yeast strains with defined genetic alterations is measured as a screen for potential anti-cancer activity. Selected strains with alterations in DNA damage repair or cell cycle control were exposed to compounds and growth inhibition was measured relative to vehicle treated controls. The strain used in this assay is mlh1 rad18
Compounds without any hit were thinned out: in the full panel of roughly 79,000, 15% have a hit. Calls of active or inactive are those of the source. Cut-off read from the data, not from the text of the source: active = growth inhibition above about 70%; inactive = the rest.

Clc1c(Cl)c(Cl)c(C[n+]2c(Cl)sc3ccccc32)c(Cl)c1Cl ... 6.2% (inactive)
c1ccc(CNc2nn[nH]n2)cc1 ... 9% (inactive)
Cc1cc2c(cc1Cl)SC(NNC1=NCCN1)=NS2(=O)=O ... 9.95% (inactive)
CC(=O)Nc1ccc(N(C)C)cc1 ... -7.85% (inactive)
O=C1CCCc2ccc3c(c21)CC1(Cc2cc4c(cc2C1)CCCC4)C3 ... -2.7% (inactive)
O/N=C(Sc1ccccn1)/C(=N/O)Sc1ccccn1 ... 4.9% (inactive)
COCCN(CCOC)C(=O)Nc1ccc(Cl)cc1 ... 9.75% (inactive)
COc1ccc(C(C)(OC)c2cc(C(C)(C)C)c(O)c(C(C)(C)C)c2)cc1 (stereo unspecified) ... -21.6% (inactive)
NC(N)=NC(N)=Nc1ccc(S(=O)(=O)O)cc1 ... -11.8% (inactive)
C1CSCCSS[C@@H]2CCCCC2SC1 (stereo partly specified) ... -17.1% (inactive)

So for CC1=CCC(CC2CO2)C1(C)C (stereo unspecified) , the logged growth inhibition turned out to be -31.1% (inactive)

So, CNC(=O)Nc1c(C)cccc1C ? Its growth inhibition was 4.05% (inactive)

So, O=Nc1c(O)c2ccccc2[nH]c1=O ? Its growth inhibition was 30.4% (inactive)

Consider CCOC(=O)C(Sc1ccc(C)cc1)C(Sc1ccc(C)cc1)C(=O)OCC (stereo unspecified) . Its measured growth inhibition is -0.75% (inactive)

Sample COc1ccc2[nH]c3c(=O)[nH]ncc3c2c1 ; growth inhibition observed: 9.05% (inactive)

For CC(C(C#N)C(N)=O)C(C#N)C(N)=O (stereo unspecified) the compound record lists growth inhibition as 14.7% (inactive)

compound [N-]=[N+]=Nc1c2c(nc3ccccc13)CCCC2 , growth inhibition observed: -4.4% (inactive)

Record summary for CC1C2=C(CC(C)(C)CC2=O)NC2=C1C(=O)CC(C)(C)C2 : reported growth inhibition = -3.4% (inactive)

Reported growth inhibition of Cc1ccc(C)n1CCCCCCCn1c(C)ccc1C : -9.8% (inactive)

Record CC(C)(C)CC(C)(C)c1ccc(O)c(CN2CCCCC2)c1 . Reported growth inhibition: 8.65% (inactive)

# growth inhibition of CC(C)(O)C(O)c1ccccc1 (stereo unspecified) = 1.35% (inactive)

Per the records, this compound ( ClCc1ccc(OCc2ccccc2)cc1 ) has growth inhibition equal to -6.25% (inactive)

Item: CC(=O)Nc1cc(NC(C)=O)c2ccc(=O)[nH]c2c1O | growth inhibition: 5.3% (inactive)

// sample C1=C(N2CCCC2)C(=[N+]2CCCC2)C(N2CCCC2)=C1 , its growth inhibition was 9.15% (inactive)

Measured growth inhibition, Cc1c(OCCCOc2ccc3c(=O)cc(-c4ccccc4)oc3c2C)ccc2c(=O)cc(-c3ccccc3)oc12 : -31.8% (inactive)

Reported growth inhibition for OCCCCC(O)CO (stereo unspecified) was -7.3% (inactive)

Source of measurements: PubChem BioAssay (NCI)
